Values compiled from ChEMBL document CHEMBL1151764.

Target: Cyclin-dependent kinase 2 (Homo sapiens, UniProt P24941)
Assay: Inhibition of human CDK2/CycA
Recorded measurements of pIC50, one per entry
Notebook: values listed as pIC50 are -log10 of the concentration (mol/L).

The cases that follow already have their pIC50 on record.
CNC(=N)SCCCN1C(=O)C2=C(C1=O)n1ccc3cccc(c31)C1Cc3ccccc3N21 (stereo unspecified) :: 5.28
N=C(Nc1ccccc1)SCCCN1C(=O)C2=C(C1=O)n1ccc3cccc(c31)C1Cc3ccccc3N21 (stereo unspecified) :: 5.29
N=C(N)SCCCn1c(=O)c2c(c1=O)n1c3ccccc3cc1c1cccc3ccn2c31 :: 5.44
CCNC(=N)SCCCN1C(=O)C2=C(C1=O)n1ccc3cccc(c31)C1Cc3ccccc3N21 (stereo unspecified) :: 5.17
O=C1C2=C(C(=O)N1CCCSC1=NCCN1)n1ccc3cccc(c31)C1Cc3ccccc3N21 (stereo unspecified) :: 5.11

# context switch: different compound, same pIC50
Entry CNC(=N)SCCCn1c(=O)c2c(c1=O)n1c3ccccc3cc1c1cccc3ccn2c31 ; pIC50 = 5.20

----------
The compounds listed here are annotated with their pIC50.
Target: Serine/threonine-protein kinase B-raf (Homo sapiens, UniProt P15056, V600E)
Sequence (P15056 2-766 V600E limits assumed): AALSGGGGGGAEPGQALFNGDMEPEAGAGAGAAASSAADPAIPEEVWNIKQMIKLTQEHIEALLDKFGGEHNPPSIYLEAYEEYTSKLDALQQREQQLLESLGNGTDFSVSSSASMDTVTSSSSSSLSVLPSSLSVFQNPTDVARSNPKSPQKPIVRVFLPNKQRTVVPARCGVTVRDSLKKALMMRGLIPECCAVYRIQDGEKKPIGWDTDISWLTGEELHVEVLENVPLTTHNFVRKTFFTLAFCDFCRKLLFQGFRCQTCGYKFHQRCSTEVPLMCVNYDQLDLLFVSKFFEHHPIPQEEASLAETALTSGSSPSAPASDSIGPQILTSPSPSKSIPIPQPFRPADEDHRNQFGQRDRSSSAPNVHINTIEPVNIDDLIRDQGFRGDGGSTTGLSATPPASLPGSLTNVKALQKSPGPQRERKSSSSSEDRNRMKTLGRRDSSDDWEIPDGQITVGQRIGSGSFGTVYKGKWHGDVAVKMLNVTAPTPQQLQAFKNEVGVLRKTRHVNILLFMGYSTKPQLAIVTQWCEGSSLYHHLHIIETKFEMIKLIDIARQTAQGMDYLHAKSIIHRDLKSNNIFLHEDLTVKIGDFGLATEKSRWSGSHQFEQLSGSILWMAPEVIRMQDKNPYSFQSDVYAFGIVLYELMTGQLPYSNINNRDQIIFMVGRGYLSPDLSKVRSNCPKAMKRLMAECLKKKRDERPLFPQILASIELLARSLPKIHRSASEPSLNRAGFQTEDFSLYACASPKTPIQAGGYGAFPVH
Experiment: Inhibition of human B-RAF-V600E mutant
Please report pIC50 as the negative decimal logarithm of the molar concentration, giving only the number.

Here's what some known entries look like.
N=C(N)SCCCn1c(=O)c2c(c1=O)n1c3ccccc3cc1c1cccc3ccn2c31 :: 5.92
CNC(=N)SCCCn1c(=O)c2c(c1=O)n1c3ccccc3cc1c1cccc3ccn2c31 :: 5.08

With Serine/threonine-protein kinase B-raf (Homo sapiens, UniProt P15056, V600E) as the test system, CNC(=N)SCCCN1C(=O)C2=C(C1=O)n1ccc3cccc(c31)C1Cc3ccccc3N21 (stereo not drawn) showed pIC50 of 5.10

----------
Molecular target: Insulin-like growth factor 1 receptor (Homo sapiens)
Sequence (P08069 31-736 limits assumed): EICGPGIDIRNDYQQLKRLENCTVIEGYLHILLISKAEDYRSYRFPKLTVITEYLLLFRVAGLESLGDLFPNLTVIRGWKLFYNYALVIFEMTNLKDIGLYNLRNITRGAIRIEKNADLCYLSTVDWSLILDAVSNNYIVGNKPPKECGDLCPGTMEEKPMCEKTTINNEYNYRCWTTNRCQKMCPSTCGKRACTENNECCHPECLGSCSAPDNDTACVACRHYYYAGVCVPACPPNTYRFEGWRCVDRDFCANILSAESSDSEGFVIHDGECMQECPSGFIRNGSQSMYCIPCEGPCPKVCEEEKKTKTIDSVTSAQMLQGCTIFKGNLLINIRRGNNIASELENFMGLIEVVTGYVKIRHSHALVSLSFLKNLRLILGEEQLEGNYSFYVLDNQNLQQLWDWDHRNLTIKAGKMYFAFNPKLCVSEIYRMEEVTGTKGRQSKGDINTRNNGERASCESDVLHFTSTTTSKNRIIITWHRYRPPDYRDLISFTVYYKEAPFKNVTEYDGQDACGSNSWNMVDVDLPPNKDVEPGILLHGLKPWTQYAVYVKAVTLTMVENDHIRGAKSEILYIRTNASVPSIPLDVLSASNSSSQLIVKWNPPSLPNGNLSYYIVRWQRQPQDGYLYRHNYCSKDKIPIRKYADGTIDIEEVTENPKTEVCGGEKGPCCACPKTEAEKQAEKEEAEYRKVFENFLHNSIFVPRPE
Sequence (P08069 741-1367 limits assumed): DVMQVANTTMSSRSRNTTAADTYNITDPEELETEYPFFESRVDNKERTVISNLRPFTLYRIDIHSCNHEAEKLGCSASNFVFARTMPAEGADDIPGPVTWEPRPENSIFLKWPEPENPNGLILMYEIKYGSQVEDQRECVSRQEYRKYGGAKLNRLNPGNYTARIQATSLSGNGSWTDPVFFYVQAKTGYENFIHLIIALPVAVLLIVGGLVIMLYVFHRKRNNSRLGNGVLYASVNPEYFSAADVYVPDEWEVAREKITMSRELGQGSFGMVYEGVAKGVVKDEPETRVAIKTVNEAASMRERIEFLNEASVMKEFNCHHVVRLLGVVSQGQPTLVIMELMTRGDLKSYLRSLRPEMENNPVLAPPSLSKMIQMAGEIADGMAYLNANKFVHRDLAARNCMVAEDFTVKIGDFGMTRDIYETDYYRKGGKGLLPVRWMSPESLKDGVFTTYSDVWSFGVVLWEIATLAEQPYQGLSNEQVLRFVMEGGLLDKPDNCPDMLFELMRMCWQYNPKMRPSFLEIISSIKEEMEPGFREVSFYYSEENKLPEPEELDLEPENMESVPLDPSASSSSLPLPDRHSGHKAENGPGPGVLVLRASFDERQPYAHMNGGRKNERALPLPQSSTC
EXPERIMENTAL ENDPOINT: pIC50
Note on units: pIC50 is unitless, being -log10 of a concentration expressed in mol/L.

Lab note: measured pIC50 of N=C(N)SCCCn1c(=O)c2c(c1=O)n1c3ccccc3cc1c1cccc3ccn2c31 was 5.40

----------
Molecular target: Cyclin-dependent kinase 2 (Homo sapiens)
Experiment: Inhibition of human CDK2/Cyc2
EXPERIMENTAL ENDPOINT: IC50 (µM)
Field: numeric (µM). Do not append units.

Entry N=C(N)SCCCN1C(=O)C2=C(C1=O)n1ccc3cccc(c31)C1Cc3ccccc3N21 (stereo unspecified) — recorded IC50 = 4.3

----------
Listing: Activity of selected compounds
Tested on: Streptomyces coelicolor
Assay: Inhibition of aph8-induced kanamycin phosphorylation in Streptomyces coelicolor cell lysate assessed as [32Pi] incorporation into kanamycin at 10 uM by microplate scintillation counter relative to control
Set-up: scale not given: the % may be the effect or the level left
Provide only the numeric value, understood in %.

CCN(CC)Cc1cn2c3c(cccc13)C1Cc3ccccc3N1C1=C2C(=O)NC1=O (stereo not given) :: 92
CCN(CC)CCCN1C(=O)C2=C(C1=O)n1ccc3cccc(c31)C1Cc3ccccc3N21 (stereo not given) :: 94
CCN(CC)Cc1cn2c3c(cccc13)C1Cc3ccccc3N1C1=C2C(=O)N(C)C1=O (stereo not given) :: 93
CN(C)CCCn1cc(C2=C(c3c[nH]c4ccccc34)C(=O)NC2=O)c2ccccc21 :: 95

Value (Activity, Streptomyces coelicolor) for record CN1C(=O)C(c2c[nH]c3ccccc23)=C(c2c[nH]c3ccccc23)C1=O = 89

----------
Molecular target: Focal adhesion kinase 1 (Homo sapiens)
Sequence (Q05397 whole entry): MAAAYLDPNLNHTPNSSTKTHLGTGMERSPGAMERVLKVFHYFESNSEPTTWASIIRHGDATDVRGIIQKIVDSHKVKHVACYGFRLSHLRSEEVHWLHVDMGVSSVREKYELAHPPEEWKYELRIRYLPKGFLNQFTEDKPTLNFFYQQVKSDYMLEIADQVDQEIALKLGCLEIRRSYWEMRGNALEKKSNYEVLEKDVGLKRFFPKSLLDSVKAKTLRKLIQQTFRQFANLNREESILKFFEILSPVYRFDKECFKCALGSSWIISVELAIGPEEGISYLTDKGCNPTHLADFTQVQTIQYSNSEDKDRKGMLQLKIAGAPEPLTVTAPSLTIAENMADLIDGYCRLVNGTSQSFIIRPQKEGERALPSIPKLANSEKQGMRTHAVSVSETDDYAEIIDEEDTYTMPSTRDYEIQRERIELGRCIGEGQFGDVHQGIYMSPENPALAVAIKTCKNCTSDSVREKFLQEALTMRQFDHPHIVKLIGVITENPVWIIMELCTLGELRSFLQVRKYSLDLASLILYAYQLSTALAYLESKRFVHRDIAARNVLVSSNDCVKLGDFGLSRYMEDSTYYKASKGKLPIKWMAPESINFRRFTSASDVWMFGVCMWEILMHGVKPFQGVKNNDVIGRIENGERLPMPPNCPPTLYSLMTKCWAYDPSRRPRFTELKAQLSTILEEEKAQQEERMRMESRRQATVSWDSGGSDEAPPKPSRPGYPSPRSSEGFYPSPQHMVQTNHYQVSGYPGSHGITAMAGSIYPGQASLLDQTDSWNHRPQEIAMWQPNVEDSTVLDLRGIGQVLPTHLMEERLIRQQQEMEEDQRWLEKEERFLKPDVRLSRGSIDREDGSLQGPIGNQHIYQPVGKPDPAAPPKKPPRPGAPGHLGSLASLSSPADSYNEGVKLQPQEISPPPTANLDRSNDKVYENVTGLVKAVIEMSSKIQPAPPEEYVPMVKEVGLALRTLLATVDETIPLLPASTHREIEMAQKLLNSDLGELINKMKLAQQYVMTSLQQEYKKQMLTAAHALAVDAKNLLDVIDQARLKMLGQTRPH
EXPERIMENTAL ENDPOINT: pIC50
pIC50 here is simply -log10 of the concentration when that concentration is written in mol/L.

Lab note: measured pIC50 of N=C(N)SCCCn1c(=O)c2c(c1=O)n1c3ccccc3cc1c1cccc3ccn2c31 was 5.36

----------
Target: Serine/threonine-protein kinase PLK1 (Homo sapiens, UniProt P53350)
Sequence (P53350 whole entry): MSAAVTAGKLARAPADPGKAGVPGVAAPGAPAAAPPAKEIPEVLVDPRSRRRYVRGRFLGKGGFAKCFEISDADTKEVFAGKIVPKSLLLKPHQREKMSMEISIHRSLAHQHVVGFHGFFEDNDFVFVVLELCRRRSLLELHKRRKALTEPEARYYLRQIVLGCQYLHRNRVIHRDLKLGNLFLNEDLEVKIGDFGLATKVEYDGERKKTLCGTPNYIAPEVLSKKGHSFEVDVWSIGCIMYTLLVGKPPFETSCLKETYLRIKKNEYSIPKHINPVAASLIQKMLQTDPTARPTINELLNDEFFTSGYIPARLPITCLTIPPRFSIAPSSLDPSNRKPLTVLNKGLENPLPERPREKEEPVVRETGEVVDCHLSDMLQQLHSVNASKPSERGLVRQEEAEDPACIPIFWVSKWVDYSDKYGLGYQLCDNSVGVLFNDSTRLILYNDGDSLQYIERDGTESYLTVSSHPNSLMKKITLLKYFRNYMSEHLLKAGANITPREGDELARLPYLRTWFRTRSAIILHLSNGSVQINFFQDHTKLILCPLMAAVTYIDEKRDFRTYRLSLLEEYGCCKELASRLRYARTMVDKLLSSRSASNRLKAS
EXPERIMENTAL ENDPOINT: pIC50
In textbook form, pIC50 equals minus log to base ten of the concentration in mol/L.

Item N=C(N)SCCCn1c(=O)c2c(c1=O)n1c3ccccc3cc1c1cccc3ccn2c31 was tested on Serine/threonine-protein kinase PLK1 (Homo sapiens, UniProt P53350); the reported pIC50 is 5.00
